# Assay comment: Cell Viability - LYMP2-025 (AID 976);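 note: cells exposed to compound for 24 h at 37 °C; plate controls were DMSO only for no effect and tetraoctylammonium bromide control for full effect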
# Details: LYMP2-025 lymphoblastoid cell viability; series mostly up to 92.2 µM
Results filed as inconclusive are left out. The source made the active and inactive calls. Calls come from the whole dose curve; as a rule, active = well fitted cell-killing curve with a large enough effect; inconclusive = small, poorly fitted or top-dose-only effect; inactive = flat fitted curve, though single readings scatter.
Property: outcome

See these solved cases before continuing.
>  <Compound>
COc1ccc(/C=C/c2cc(OC)cc(=O)o2)cc1

>  <Experimental value>
inactive

$$$$
>  <Compound>
C/C=C\c1ccc(OC)cc1

>  <Experimental value>
inactive

$$$$
>  <Compound>
O=C(O)c1ccccc1C(c1ccc(O)cc1)c1ccc(O)cc1

>  <Experimental value>
inactive

$$$$
>  <Compound>
CC1=CC(C)(C)Nc2ccccc21

>  <Experimental value>
inactive

$$$$
>  <Compound>
O=C(O)c1ccc(O)cc1O

>  <Experimental value>
inactive

$$$$

Batch request: outcome per item, same order as input.
1. CCO
2. COC(=O)CCCCC(=O)OC
3. C=C(C)C1CC=C(C)C(O)C1 (stereo not drawn)
4. COc1c2ccoc2cc2oc(=O)ccc12

["inactive", "inactive", "inactive", "inactive"]

Batch request: outcome per item, same order as input.
1. C=CC(=C)CCC=C(C)C
2. O=NO
3. C=Cc1ccccc1Cl
4. CCCN(CCC)C(=O)SCC

1. inactive
2. inactive
3. inactive
4. inactive

* * *

# Assay system: Rap guanine nucleotide exchange factor 3 (Homo sapiens) (UniProt O95398)
# Assay comment: Counterscreen qHTS for agonist of cAMP-regulated guanine nucleotide exchange factor 3 (EPAC1) (AID 1645889); note: % of control where 0% means no effect; nearly all actives have a fitted effect of over 40% in size
# Details: EPAC1 Rap1B-BODIPY-GDP exchange, fluorescence; series mostly up to 154 µM
Inconclusive results are not listed. Active and inactive are the calls of the source. The call rests on the fitted dose curve; in most records, active means well fitted activation curve with a large enough effect; inconclusive means small, poorly fitted or top-dose-only effect, or another doubt; inactive means no such curve, though single readings can be large or run the other way.
Property: activation

See these solved cases before continuing.
>  <Molecule>
Cc1ccc(CN(C(=O)COc2cc(C)c(Cl)c(C)c2)c2ccccn2)o1

>  <Assay system>
Rap guanine nucleotide exchange factor 3 (Homo sapiens) (UniProt O95398)

>  <activation>
inactive

$$$$
>  <Molecule>
CCC(=O)NC(c1ccc(C)cc1)c1ccc2cccnc2c1O (stereo unspecified)

>  <Assay system>
Rap guanine nucleotide exchange factor 3 (Homo sapiens) (UniProt O95398)

>  <activation>
inactive

$$$$
>  <Molecule>
O=C(Nc1nc2ccccc2[nH]1)C1CCN(S(=O)(=O)c2cccs2)CC1

>  <Assay system>
Rap guanine nucleotide exchange factor 3 (Homo sapiens) (UniProt O95398)

>  <activation>
inactive

$$$$
>  <Molecule>
Cc1occc1C(=O)N/N=C/C1=C(N2CCOCC2)C(=C/c2ccc(Cl)cc2Cl)/CC1

>  <Assay system>
Rap guanine nucleotide exchange factor 3 (Homo sapiens) (UniProt O95398)

>  <activation>
inactive

$$$$
>  <Molecule>
O=c1[nH][nH]c(-c2ccccc2O)c1C(C[N+](=O)[O-])c1ccc(Cl)cc1Cl (stereo unspecified)

>  <Assay system>
Rap guanine nucleotide exchange factor 3 (Homo sapiens) (UniProt O95398)

>  <activation>
inactive

$$$$

Batch request: activation per item, same order as input.
1. CCCN(C(=O)COC(=O)COc1c(C)cccc1C)c1c(N)n(Cc2ccccc2)c(=O)[nH]c1=O
2. Cc1ccc(C)c(CSC2=NC(C)(C)Nc3ccccc32)c1
3. COC(=O)[C@@H](NC(=O)Nc1ccc2c(c1)OCCO2)C(C)C
4. O=C(O)c1cc(Nc2cc(Cl)c3nonc3c2[N+](=O)[O-])ccc1O
5. O=C(O)COc1ccccc1/C=N/Nc1ccc(S(=O)(=O)Nc2ccc(Cl)cc2)cc1[N+](=O)[O-]
6. CC(C)CCNc1c(-c2cccs2)nc2ccccn12

["inactive", "inactive", "inactive", "inactive", "17.2% [at 30.8 µM] (inactive)", "inactive"]

Batch request: activation per item, same order as input.
1. Cc1cccc(C)c1OC(=O)c1ccccc1
2. O=C1CCC([N+](=O)[O-])C(c2cccc3ccccc23)N1 (stereo unspecified)
3. CCc1ccc([C@@H]2CC=C(C(=O)O)[C@H](c3ccc(C(C)(C)C)cc3)N2S(=O)(=O)c2ccc(C)cc2)cc1
4. C=CCc1ccccc1OCCSc1nc(-c2ccc(C(C)(C)C)cc2)nc2cc(=O)[nH]n12

1: 6.89% [at 30.8 µM] (inactive); 2: 45.7% [at 30.8 µM] (inactive); 3: inactive; 4: inactive

Batch request: activation per item, same order as input.
1. O=C(c1ccc(-c2ccccc2Cl)o1)N1CCC1
2. CCOc1ccc(NC(=NCc2ccc3c(c2)OCO3)SC2CC(=O)N(c3ccc(C(=O)O)cc3)C2=O)cc1 (stereo unspecified)
3. COC(=O)c1ccc2nc(-c3ccc(OC)c(OC)c3)c(CC3CCCCC3)n2c1
4. CC(=O)c1sc2nc(-c3ccco3)ccc2c1N

3.77% [at 30.8 µM] (inactive)
inactive
inactive
inactive

Batch request: activation per item, same order as input.
1. CCCCNC(=O)c1cc(-c2ccc3c(c2)OCO3)on1
2. CC(C)CCNC(=O)c1onc(CSc2ccccn2)c1C(=O)NCCC(C)C

["inactive", "inactive"]
